Consider the following compounds; for each one, report its pIC50.
target: PKMYT1 enzyme (Homo sapiens); construct: purchased Thermo Scientific A33387; assay: PKMYT1 enzyme inhibition activity, ADP-GLO method; type: biochemical; settings: PKMYT1 enzyme 10 nM, ATP 5 µM, 37°C 90 minutes; read-out: ADP-GLO IC50
pIC50 here: minus log base 10 of the concentration, concentration in moles per litre.

QUERY: Param item = [2H]C([2H])([2H])c1nc2c(cc1C(F)(F)F)c(C(N)=O)c(N)n2-c1c(C)cc(F)c(O)c1C (atropisomer, axis not shown) [Example 194.1] ; retrieve measured pIC50.
RESULT: 8.28

QUERY: Param item = Cc1cc(F)c(O)c(C)c1-n1c(N)c(C(N)=O)c2cc(CC(C)C)cnc21 ; retrieve measured pIC50.
RESULT: 7.87

QUERY: Param item = Cc1cc(F)c(O)c(C)c1-n1c(N)c(C(N)=O)c2cc(S(C)(=O)=O)c(C)nc21 ; retrieve measured pIC50.
RESULT: 8.31

QUERY: Param item = Cc1nc2c(cc1N1CCOCC1)c(C(N)=O)c(N)n2-c1c(C)c(O)cc(F)c1C ; retrieve measured pIC50.
RESULT: 7.47

###

Molecular target: PKMYT1 enzyme (Homo sapiens, UniProt Q99640)
Construct: purchased Thermo Scientific A33387
Sequence (Q99640 1-499): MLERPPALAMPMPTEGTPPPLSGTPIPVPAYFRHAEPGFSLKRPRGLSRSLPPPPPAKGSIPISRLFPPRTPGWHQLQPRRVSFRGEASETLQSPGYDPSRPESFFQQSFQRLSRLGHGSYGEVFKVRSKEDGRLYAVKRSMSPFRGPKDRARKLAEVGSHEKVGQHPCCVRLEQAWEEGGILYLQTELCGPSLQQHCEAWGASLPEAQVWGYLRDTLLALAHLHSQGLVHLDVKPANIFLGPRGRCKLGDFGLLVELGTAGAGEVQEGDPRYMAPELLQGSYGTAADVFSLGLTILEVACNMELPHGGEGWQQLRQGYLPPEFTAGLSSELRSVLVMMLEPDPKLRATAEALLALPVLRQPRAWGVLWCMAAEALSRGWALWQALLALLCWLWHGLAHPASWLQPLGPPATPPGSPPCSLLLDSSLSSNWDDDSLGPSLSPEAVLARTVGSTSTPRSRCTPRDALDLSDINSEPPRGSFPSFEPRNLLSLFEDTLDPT
Assay: PKMYT1 enzyme inhibition activity, ADP-GLO method
Type: biochemical
Conditions: PKMYT1 enzyme 10 nM, ATP 5 µM, 37°C 90 minutes; read-out: ADP-GLO IC50
Consider the following compounds; for each one, report its IC50.
Note: unit nM is implicit; provide only the numeric part.

QUERY: Param item = Cc1cc(F)c(O)c(C)c1-n1c(N)c(C(N)=O)c2cc(C(C)(C)O)cnc21 ; retrieve measured IC50.
RESULT: 24.3

QUERY: Param item = Cc1cc2c(cn1)c(C(N)=O)c(N)n2-c1c(C)ccc(O)c1C ; retrieve measured IC50.
RESULT: 11.1

QUERY: Param item = Cc1nc2c(cc1-c1cnn(C)c1)c(C(N)=O)c(N)n2-c1c(C)c(O)cc(F)c1C ; retrieve measured IC50.
RESULT: 16.9

QUERY: Param item = [2H]C([2H])([2H])c1c(O)c(F)cc(C)c1-n1c(N)c(C(N)=O)c2cc(C(F)(F)F)c(C)nc21 (racemic) [Example 195] ; retrieve measured IC50.
RESULT: 4.6

###

target: PKMYT1 enzyme (Homo sapiens, UniProt Q99640); construct: purchased Thermo Scientific A33387; experiment: PKMYT1 enzyme inhibition activity, ADP-GLO method; assay type: biochemical; details: PKMYT1 enzyme 10 nM, ATP 5 µM, 37°C 90 minutes; read-out: ADP-GLO IC50
observationType: pIC50
pIC50 here: minus log base 10 of the concentration, concentration in moles per litre.

QUERY: PKMYT1 enzyme (Homo sapiens, UniProt Q99640) / pIC50 / Cc1ccc(O)c(C)c1-n1c(N)c(C(N)=O)c2cnc(NC3CCCC3)nc21 [Example 76] : value?
RESULT: 8.40

QUERY: PKMYT1 enzyme (Homo sapiens, UniProt Q99640) / pIC50 / Cc1cc2c(C(N)=O)c(N)n(-c3c(C)cc(F)c(O)c3C)c2nc1C [Example 23] : value?
RESULT: 8.07

QUERY: PKMYT1 enzyme (Homo sapiens, UniProt Q99640) / pIC50 / Cc1cc(F)c(O)c(C)c1-n1c(N)c(C(N)=O)c2cc3c(nc21)CCC3 [Example 183] : value?
RESULT: 7.47

QUERY: PKMYT1 enzyme (Homo sapiens, UniProt Q99640) / pIC50 / Cc1cc(F)c(O)c(C)c1-n1c(N)c(C(N)=O)c2c3c(c(C)nc21)CCC3 (atropisomer, axis not shown) [Example 176.2] : value?
RESULT: 7.99

QUERY: PKMYT1 enzyme (Homo sapiens, UniProt Q99640) / pIC50 / Cc1cc(F)c(O)c(C)c1-n1c(N)c(C(N)=O)c2cc(C3=CCOCC3)c(C)nc21 [Example 165] : value?
RESULT: 7.48

QUERY: PKMYT1 enzyme (Homo sapiens, UniProt Q99640) / pIC50 / Cc1ccc(O)c(C)c1-n1c(N)c(C(N)=O)c2cc3c(nc21)OC(F)(F)O3 [Example 178] : value?
RESULT: 7.81

QUERY: PKMYT1 enzyme (Homo sapiens, UniProt Q99640) / pIC50 / Cc1cc(F)c(O)c(C)c1-n1c(N)c(C(N)=O)c2c3c(c(C)nc21)CCC3 (racemic) [Example 176] : value?
RESULT: 8.01

QUERY: PKMYT1 enzyme (Homo sapiens, UniProt Q99640) / pIC50 / CCc1nc(C)nc2c1c(C(N)=O)c(N)n2-c1c(C)ccc(O)c1C (racemic) [Example 66] : value?
RESULT: 7.65

###

assay: Metabolic stability in mouse liver microsomes; conditions: microsomes
observationType: half-life at 1 µM (min)
Note: unit min is implicit; provide only the numeric part.

QUERY: Param item = Cc1cc2c(C(N)=O)c(N)n(-c3c(C)ccc(O)c3C)c2nc1C (atropisomer, axis not shown) [RP-6306, reference compound] ; retrieve measured half-life at 1 µM.
RESULT: 22.6

###

target: PKMYT1 enzyme (Homo sapiens); construct: purchased Thermo Scientific A33387; assay: PKMYT1 enzyme inhibition activity, ADP-GLO method; type: biochemical; conditions: PKMYT1 enzyme 10 nM, ATP 5 µM, 37°C 90 minutes; read-out: ADP-GLO IC50
observationType: log10 of IC50 (log10 of the value in nM)
Record value = log10 of IC50 given in nM.

QUERY: Param item = Cc1cc2c(C(N)=O)c(N)n(-c3c(C)c(O)cc(F)c3C)c2nc1C [Example 20] ; retrieve measured log10 of IC50.
RESULT: 1.18

QUERY: Param item = COc1nc2c(cc1C)c(C(N)=O)c(N)n2-c1c(C)cc(F)c(O)c1C ; retrieve measured log10 of IC50.
RESULT: 1.34

QUERY: Param item = Cc1ccc(O)c(C)c1-n1c(N)c(C(N)=O)c2cnc(C)c(F)c21 ; retrieve measured log10 of IC50.
RESULT: 1.09

QUERY: Param item = Cc1cc2c(C(N)=O)c(N)n(-c3c(C)c(F)cc(O)c3F)c2nc1C ; retrieve measured log10 of IC50.
RESULT: 1.15

QUERY: Param item = Cc1c(O)cc(F)c(C)c1-n1c(N)c(C(N)=O)c2cc(F)cnc21 ; retrieve measured log10 of IC50.
RESULT: 0.73

QUERY: Param item = Cc1cc(F)c(O)c(C)c1-n1c(N)c(C(N)=O)c2cc3ccccc3nc21 ; retrieve measured log10 of IC50.
RESULT: 1.48

QUERY: Param item = Cc1ccc(O)c(C)c1-n1c(N)c(C(N)=O)c2cnc(Cl)nc21 ; retrieve measured log10 of IC50.
RESULT: 0.90

QUERY: Param item = C=C(C)c1cnc2c(c1)c(C(N)=O)c(N)n2-c1c(C)c(O)cc(F)c1C (atropisomer, axis not shown) [Example 133] ; retrieve measured log10 of IC50.
RESULT: 0.82

QUERY: Param item = Cc1ncc2c(C(N)=O)c(N)n(-c3c(C)c(O)cc(F)c3C)c2c1F (racemic) [Example 71] ; retrieve measured log10 of IC50.
RESULT: 0.90

QUERY: Param item = Cc1c(O)cc(F)c(C)c1-n1c(N)c(C(N)=O)c2cc(C#N)cnc21 ; retrieve measured log10 of IC50.
RESULT: 0.91

QUERY: Param item = Cc1ccc(O)c(C)c1-n1c(N)c(C(N)=O)c2cnc(C3CC3)nc21 ; retrieve measured log10 of IC50.
RESULT: 1.05

QUERY: Param item = COc1ccc(CNc2ncc3c(C(N)=O)c(N)n(-c4c(C)ccc(O)c4C)c3n2)cc1 ; retrieve measured log10 of IC50.
RESULT: 2.23

QUERY: Param item = Cc1c(O)cc(F)c(C)c1-n1c(N)c(C(N)=O)c2cc(Cl)cnc21 ; retrieve measured log10 of IC50.
RESULT: 0.96

QUERY: Param item = Cc1ccc(O)c(C)c1-n1c(N)c(C(N)=O)c2cnc(C#CC3CC3)nc21 ; retrieve measured log10 of IC50.
RESULT: 0.82

QUERY: Param item = Cc1cc2c(C(N)=O)c(N)n(-c3c(C)ccc(O)c3C)c2nc1N ; retrieve measured log10 of IC50.
RESULT: 0.98

QUERY: Param item = Cc1cc(F)c(O)c(C)c1-n1c(N)c(C(N)=O)c2cc(CC(F)(F)F)c(C)nc21 ; retrieve measured log10 of IC50.
RESULT: 0.67

QUERY: Param item = Cc1cc(F)c(O)c(C)c1-n1c(N)c(C(N)=O)c2cc(N3CCCC3)c(C)nc21 (atropisomer, axis not shown) [Example 162.1] ; retrieve measured log10 of IC50.
RESULT: 0.96

QUERY: Param item = Cc1c(O)cc(F)c(C)c1-n1c(N)c(C(N)=O)c2cc3c(nc21)CCO3 ; retrieve measured log10 of IC50.
RESULT: 1.54

QUERY: Param item = Cc1nc2c(cc1C1=CCCC1)c(C(N)=O)c(N)n2-c1c(C)c(O)cc(F)c1C ; retrieve measured log10 of IC50.
RESULT: 1.41

QUERY: Param item = C/C=C/c1ncc2c(C(N)=O)c(N)n(-c3c(C)ccc(O)c3C)c2n1 ; retrieve measured log10 of IC50.
RESULT: 0.68

QUERY: Param item = Cc1ccc(O)c(C)c1-n1c(N)c(C(N)=O)c2cnc(C3=CCCCC3)nc21 ; retrieve measured log10 of IC50.
RESULT: 0.96

QUERY: Param item = Cc1cc(F)c(O)c(C)c1-n1c(N)c(C(N)=O)c2cc(C3CC3)cnc21 (atropisomer, axis not shown) [Example 144] ; retrieve measured log10 of IC50.
RESULT: 0.76

QUERY: Param item = Cc1c(O)cc(F)c(C)c1-n1c(N)c(C(N)=O)c2cc(C(C)C)cnc21 (racemic) [Example 113] ; retrieve measured log10 of IC50.
RESULT: 0.92

QUERY: Param item = Cc1ncc2c(C(N)=O)c(N)n(-c3c(C)c(O)cc(F)c3C)c2n1 (racemic) ; retrieve measured log10 of IC50.
RESULT: 0.71

QUERY: Param item = Cc1cc(F)c(O)c(C)c1-n1c(N)c(C(N)=O)c2cc(C(F)F)c(C)nc21 ; retrieve measured log10 of IC50.
RESULT: 1.28

QUERY: Param item = Cc1nc2c(cc1-c1cccnc1)c(C(N)=O)c(N)n2-c1c(C)c(O)cc(F)c1C ; retrieve measured log10 of IC50.
RESULT: 1.05

QUERY: Param item = Cc1cc2c(C(N)=O)c(N)n(-c3c(C)cc(Cl)c(O)c3C)c2nc1C ; retrieve measured log10 of IC50.
RESULT: 1.42

QUERY: Param item = Cc1cc(F)c(O)c(C)c1-n1c(N)c(C(N)=O)c2cc(C3=CCOCC3)c(C)nc21 (atropisomer, axis not shown) [Example 175] ; retrieve measured log10 of IC50.
RESULT: 0.68

QUERY: Param item = C#Cc1ncc2c(C(N)=O)c(N)n(-c3c(C)ccc(O)c3C)c2n1 ; retrieve measured log10 of IC50.
RESULT: 1.11

QUERY: Param item = Cc1ccc(O)c(C)c1-n1c(N)c(C(N)=O)c2cc(NC(=O)Nc3ccccc3)c(C)nc21 ; retrieve measured log10 of IC50.
RESULT: 1.62

QUERY: Param item = Cc1c(O)cc(F)c(C)c1-n1c(N)c(C(N)=O)c2cc(C(C)C)cnc21 (atropisomer, axis not shown) [Example 113.1] ; retrieve measured log10 of IC50.
RESULT: 1.97

QUERY: Param item = Cc1ccc(O)c(C)c1-n1c(N)c(C(N)=O)c2cc3c(nc21)OCCO3 (racemic) ; retrieve measured log10 of IC50.
RESULT: 1.02
